Listing: Plant response rating, Kochia of selected compounds
# Tested on: kochia (Kochia scoparia)
# assay.details: Test C pre/postemergence
# Assay type: in vivo
# assay.context: Preemergence, 62 g ai/ha; scale 0 to 100, 0 no effect, 100 complete control

{"columns": ["compound", "Plant response rating, Kochia"],
 "data": [
  ["CCCCOC(=O)c1nc(C2CC2)nc(N)c1Cl", 95],
  ["CCOC(=O)C(OC(C)=O)c1nc(C2CC2)nc(N)c1Br (centres unmarked)", 0],
  ["COC(=O)c1nc(C2CC2)nc(N=CN(C)C)c1Br", 85],
  ["CC(C)COC(=O)c1nc(C2CC2)nc(N)c1Br", 0],
  ["COCc1nc(C2CC2)nc(N)c1Br", 0],
  ["CCCOC(=O)c1nc(C2CC2)nc(N)c1Br", 95],
  ["CNN=Cc1nc(C2CC2)nc(N)c1Br", 100],
  ["Nc1nc(C2CC2)nc(C=NO)c1Br", 0]
]}
